- target under test: PTP1B (Homo sapiens, UniProt P18031)
- Construct: encodes for PTP1B (residues 1–321); inferred from the pET28A vector, NdeI/BamHI cloning and Ni-agarose purification) (N); made in house; host or cells: E. coli BLR
- Sequence (P18031 1-321): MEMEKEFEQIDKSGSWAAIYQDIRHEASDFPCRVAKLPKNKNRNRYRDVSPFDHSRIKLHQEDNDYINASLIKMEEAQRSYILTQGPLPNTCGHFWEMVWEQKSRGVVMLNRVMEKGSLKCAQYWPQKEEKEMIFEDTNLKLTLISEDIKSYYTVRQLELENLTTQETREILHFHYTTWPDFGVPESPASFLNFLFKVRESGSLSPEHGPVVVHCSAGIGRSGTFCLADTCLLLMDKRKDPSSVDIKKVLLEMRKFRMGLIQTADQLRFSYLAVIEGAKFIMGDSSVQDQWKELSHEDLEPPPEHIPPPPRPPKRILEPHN
- assay summary: PTP1B enzymatic inhibition assay (pNPP substrate)
- Assay type: biochemical
- condition set: 200 µM compound, pNPP 50 mM, 30 min, 37 °C
endpoint name: inhibition at 200 µM (%)
Number in %, nothing else.

Enquiry: Which inhibition at 200 µM reading was recorded for the molecule C[S+]([O-])c1nc2cc(Cl)c(Oc3cccc4ccccc34)cc2[nH]1 (stereo not shown) [Compound 10] ?
Return: 65

Enquiry: How about CCCCCc1ccc(S(=O)(=O)Nc2ncccc2OCc2cc(F)cc(F)c2)cc1 [Compound 8] ?
Return: 74

Enquiry: How about CC(=O)Nc1nc2cc(Oc3cccc(Cl)c3Cl)c(Cl)cc2n1C [Compound 9] ?
Return: 70

Enquiry: How about O=C(Nc1nc2cc(Oc3cccc(Cl)c3Cl)c(Cl)cc2[nH]1)C(F)(F)F [Compound 3] ?
Return: 92

Enquiry: How about CCCc1cc(=O)oc2cc(OC(C)C(=O)NNS(=O)(=O)c3cccc(C(F)(F)F)c3)ccc12 (stereo not shown) [Compound 6] ?
Return: 84

Enquiry: How about CN(C)S(=O)(=O)Oc1ccc(-c2noc(-c3ccc(Oc4cc(Cl)cc(Cl)c4)o3)n2)cc1 [Compound 5] ?
Return: 85

Enquiry: How about COc1cc2nc(SCC(=O)Nc3ccc(F)c(Cl)c3)n(-c3ccccc3)c(=O)c2cc1OC [Compound 7] ?
Return: 80

Enquiry: How about CSc1nc2cc(Cl)c(C(=O)Nc3nc4cc(Oc5cccc(Cl)c5Cl)c(Cl)cc4[nH]3)cc2n1C [Compound 1] ?
Return: 100

Enquiry: How about O=C(CSc1nnnn1-c1ccc(O)cc1)c1ccc2c(c1)OCO2 [Compound 4] ?
Return: 88

Enquiry: How about O=C(CSc1nc2cc(Oc3cccc4ccccc34)c(Cl)cc2[nH]1)Nc1nccs1 [Compound 2] ?
Return: 99

The measurements presented in this section are drawn from paper PMC6150025.
